# Test system: L1210 leukemia ip in BDF1 mice, survival T/C
# ASSAY_PROCEDURE: NCI In Vivo Anticancer Drug Screen. Data for tumor model L1210 Leukemia (intraperitoneal) in B6D2F1 (BDF1) mice
# EXPERIMENTAL_PARAMETERS: endpoint: mean survival time; dose: 100.0 mg/kg/injection; schedule: Q01DX001 (ip); vehicle: saline with Tween-80; higher = longer survival
Toxic doses and inconclusive results are not listed.
READOUT_KIND: T/C

MOLECULE | READOUT_KIND | RESULT
CC1NC(=O)OC12CCCCC2 (stereo unspecified) | T/C | 96 % of control
O=C(CCc1ccccc1)NC(=S)Nc1ccc(I)cc1 | T/C | 106 % of control
O=C(c1ccccc1)c1cc(Cl)ccc1NC(=O)C(Cl)(Cl)Cl | T/C | 102 % of control

Hey, can you go through the list below and give me T/C for every item?
1. COc1cc(/C=N/NC(=O)CCCCCCCCC(=O)N/N=C/c2ccc(O)c(OC)c2)ccc1O
2. COc1cc2nc(/C=C/c3nc4cc(OC)c(OC)cc4[nH]3)[nH]c2cc1OC
3. CCOC(=O)C(O)c1ccc[nH]1 (stereo unspecified)

### Response
["92 % of control", "94 % of control", "115 % of control"]
